Biological target: T1, EsCas13d, nuclease-dead (Eubacterium siraeum, UniProt B0MS50, R295A;H300A;R849A;H854A)
T1 sequence: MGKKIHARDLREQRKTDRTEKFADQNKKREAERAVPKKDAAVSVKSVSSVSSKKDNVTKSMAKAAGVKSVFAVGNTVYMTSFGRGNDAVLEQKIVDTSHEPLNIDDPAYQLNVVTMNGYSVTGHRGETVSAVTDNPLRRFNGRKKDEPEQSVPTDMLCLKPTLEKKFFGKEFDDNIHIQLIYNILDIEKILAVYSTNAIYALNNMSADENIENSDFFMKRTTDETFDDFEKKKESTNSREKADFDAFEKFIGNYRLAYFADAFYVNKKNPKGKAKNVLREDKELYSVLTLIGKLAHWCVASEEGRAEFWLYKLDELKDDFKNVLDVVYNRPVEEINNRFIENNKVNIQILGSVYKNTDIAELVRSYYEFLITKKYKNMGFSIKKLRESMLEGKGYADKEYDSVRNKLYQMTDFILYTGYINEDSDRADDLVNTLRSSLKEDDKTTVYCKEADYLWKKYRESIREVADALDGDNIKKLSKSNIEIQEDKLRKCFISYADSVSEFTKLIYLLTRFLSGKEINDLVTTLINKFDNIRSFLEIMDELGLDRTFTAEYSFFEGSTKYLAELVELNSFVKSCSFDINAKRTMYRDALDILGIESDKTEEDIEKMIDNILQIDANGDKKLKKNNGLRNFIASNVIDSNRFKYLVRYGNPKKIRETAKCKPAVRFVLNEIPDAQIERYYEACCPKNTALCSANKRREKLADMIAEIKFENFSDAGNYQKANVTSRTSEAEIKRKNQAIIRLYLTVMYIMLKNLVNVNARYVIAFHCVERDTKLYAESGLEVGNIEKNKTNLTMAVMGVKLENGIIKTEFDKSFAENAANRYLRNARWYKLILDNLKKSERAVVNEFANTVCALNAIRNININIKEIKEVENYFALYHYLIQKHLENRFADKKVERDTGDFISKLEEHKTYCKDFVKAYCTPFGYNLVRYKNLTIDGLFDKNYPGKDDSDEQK
Assay: crRNA (strand 1, pre-loaded); Mg2+; 40 mM Tris-HCl pH 7.5, 150 mM NaCl, 6 mM MgCl2, 1 mM DTT, 0.1% Tween-20, 0.2 mg/ml BSA; 25 C; 10 min per concentration, then washed
Conditions: tags: His6-TwinStrep-SUMO cleaved; N-terminal SNAP kept (SNAP-Surface 488); label: 3' end held by stalled T7 RNA polymerase
Listed here: items and their measured Kd.
I only need the number, in nM, no unit after it.

Look over these answered cases.
[
  {
    "binder": "target 3 complement block 5-7 (mixed) RNA 1: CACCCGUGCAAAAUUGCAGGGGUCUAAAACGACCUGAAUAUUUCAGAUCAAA RNA 2: GGGAAUGGAUCCACAUCUACGAAUUCGUUUUUGAUCUGAAAUAUAGUGGUCUGCAGAUCGGAAGAGCACACGU",
    "measurement_units": "nM",
    "Kd": 39.1
  },
  {
    "binder": "target 1 insC 3' of 20,insU 3' of 15 (mixed) RNA 1: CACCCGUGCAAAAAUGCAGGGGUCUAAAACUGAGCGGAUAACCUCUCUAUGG RNA 2: GGGAAUGGAUCCACAUCUACGAAUUCGUACCACUAGAGUAGGUUAUCCGCUCACCGAGAUCGGAAGAGCACACGU",
    "measurement_units": "nM",
    "Kd": 10
  },
  {
    "binder": "target 1 insC 3' of 22,insU 3' of 6 (mixed) RNA 1: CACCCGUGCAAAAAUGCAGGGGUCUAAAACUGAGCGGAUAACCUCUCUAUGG RNA 2: GGGAAUGGAUCCACAUCUACGAAUUCGUACCCAUAGAGAGGUUAUCCUGCUCACCGAGAUCGGAAGAGCACACGU",
    "measurement_units": "nM",
    "Kd": 20
  }
]

Q: I would be grateful if you could share the reported Kd for target 1 insC 3' of 20,insG 3' of 8 (mixed) RNA 1: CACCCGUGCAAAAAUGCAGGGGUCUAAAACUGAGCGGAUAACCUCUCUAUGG RNA 2: GGGAAUGGAUCCACAUCUACGAAUUCGUACCACUAGAGAGGUUAUGCCGCUCACCGAGAUCGGAAGAGCACACGU .
A: 8.6

Q: I would be grateful if you could share the reported Kd for target 3 U7C,U22C (mixed) RNA 1: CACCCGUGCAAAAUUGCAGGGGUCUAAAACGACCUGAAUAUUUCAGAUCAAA RNA 2: GGGAAUGGAUCCACAUCUACGAAUUCGUUCUUGAUCUGAAAUAUCCAGGUCUGCAGAUCGGAAGAGCACACGU .
A: 70.5

Q: I would be grateful if you could share the reported Kd for target 3 G3U,U7C (mixed) RNA 1: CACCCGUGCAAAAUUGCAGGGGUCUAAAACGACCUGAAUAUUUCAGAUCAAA RNA 2: GGGAAUGGAUCCACAUCUACGAAUUCGUUUUUGAUCUGAAAUAUCCAGUUCUGCAGAUCGGAAGAGCACACGU .
A: 86

Q: I would be grateful if you could share the reported Kd for target 1 A1U,A14G (mixed) RNA 1: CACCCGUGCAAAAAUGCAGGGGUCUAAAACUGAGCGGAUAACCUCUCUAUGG RNA 2: GGGAAUGGAUCCACAUCUACGAAUUCGUACCAUAGAGGGGUUAUCCGCUCUCCGAGAUCGGAAGAGCACACGU .
A: 17

Q: I would be grateful if you could share the reported Kd for target 3 G4A,A9G (mixed) RNA 1: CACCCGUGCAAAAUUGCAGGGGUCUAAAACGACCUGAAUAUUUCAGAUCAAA RNA 2: GGGAAUGGAUCCACAUCUACGAAUUCGUUUUUGAUCUGAAAUGUUCAAGUCUGCAGAUCGGAAGAGCACACGU .
A: 52.5
